So I've got a bunch of compounds here, and I need their IC50 values.
# Tested on: Jurkat cell (ATCC TIB-152)
# PROTOCOL_DESCRIPTION: Jurkat cell apoptosis by Fas antibody, WST-1 method
# Format: cell-based
# CONDITION_DETAILS: Homo sapiens, Jurkat, apoptosis using Fas antibody, WST-1
Numbers only, in µM.

>>> observed_result("CCC1(C(=O)NC(CC(=O)O)C(=O)CF)CC(c2cc(C3CC3)ccn2)=NO1 (centres unmarked) [Iaa12]")
0.7
>>> observed_result("CCC1(C(=O)NC(CC(=O)O)C(=O)CF)CC(c2cc(C(C)=O)ccn2)=NO1 (centres unmarked) [Iaa11]")
31
>>> observed_result("CCC1(C(=O)N[C@@H](CC(=O)O)C(=O)COc2c(F)c(F)cc(F)c2F)CC(COc2ccc(Cl)c3ccccc23)=NO1 (some centres unmarked) [Iqq]")
37
>>> observed_result("CC(C)C1(C(=O)NC(CC(=O)O)C(=O)CF)CC(c2cc(-c3ccccc3)ccn2)=NO1 (centres unmarked) [Iaa17]")
1.14
>>> observed_result("CCC1(C(=O)NC(CC(=O)O)C(=O)CF)CC(c2ccnc3ccccc23)=NO1 (centres unmarked) [Ijj]")
4.7

Record IC50 per entry; entries follow.
1. CCC1(C(=O)N[C@@H](CC(=O)O)C(=O)COC(=O)c2c(Cl)cccc2Cl)CC(CCc2cccc3ccccc23)=NO1 (some centres unmarked) [Ioo]
2. CCC1(C(=O)NC(CC(=O)O)C(=O)CF)CC(c2cccc(C(C)(C)C)c2)=NO1 (centres unmarked) [Iaa2]
3. CCC1(C(=O)NC(CC(=O)O)C(=O)CF)CC(c2cc(C3CCCCC3)ccn2)=NO1 (centres unmarked) [Iaa15]
4. CCC1(C(=O)N[C@@H](CC(=O)O)C(=O)COc2c(F)c(F)cc(F)c2F)CC(COc2cccc3ccccc23)=NO1 (some centres unmarked) [Ipp]
5. CCC1(C(=O)NC(CC(=O)O)C(=O)CF)CC(c2ccccc2C(C)C)=NO1 (centres unmarked) [Iaa1]
6. CCC1(C(=O)NC(CC(=O)O)C(=O)CF)CC(c2cc3ccccc3s2)=NO1 (centres unmarked) [Ikk]
7. CC(C)[C@@]1(C(=O)NC(CC(=O)O)C(=O)CF)CC(c2nccc3ccccc23)=NO1 (some centres unmarked) [Iii]
8. CC(C)[C@@]1(C(=O)NC(CC(=O)O)C(=O)CF)CC(c2cc(C3CCCC3)ccn2)=NO1 (some centres unmarked) [Iaa14]

Marked response:
[50, 0.56, 0.72, 3.5, 0.33, 1.1, 0.1, 0.79]

Record IC50 per entry; entries follow.
1. CC(C)[C@@]1(C(=O)N[C@@H](CC(=O)O)C(=O)COP(=O)(c2ccccc2)c2ccccc2)CC(c2nccc3ccccc23)=NO1 [Iaa18]
2. CCC1(C(=O)NC(CC(=O)O)C(=O)CF)CC(c2cnc3ccccc3c2)=NO1 (centres unmarked) [Iyy]
3. CCC1(C(=O)NC(CC(=O)O)C(=O)CF)CC(c2cc(C(C)(C)C)ccn2)=NO1 (centres unmarked) [Iaa8]
4. CC(C)[C@@]1(C(=O)NC(CC(=O)O)C(=O)CF)CC(c2ccc3ccccc3n2)=NO1 (some centres unmarked) [Izz]

Marked response:
1: 1.5; 2: 31.2; 3: 0.7; 4: 1.25

====

# SYSTEM_UNDER_TEST: caspase-8 (Homo sapiens)
# Construct: p10 and p20 subunits (Thornberry, N. A. et al, Nature, 1992, 356, 768) were expressed in E. coli; made in house; host or cells: E. coli
# Sequence (Q14790 217-374 limits assumed, species assumed): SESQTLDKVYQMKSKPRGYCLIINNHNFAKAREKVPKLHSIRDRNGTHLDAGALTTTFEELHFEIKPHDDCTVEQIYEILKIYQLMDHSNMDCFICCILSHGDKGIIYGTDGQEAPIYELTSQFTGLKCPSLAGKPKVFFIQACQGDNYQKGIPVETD
# Sequence (Q14790 385-479 limits assumed, species assumed): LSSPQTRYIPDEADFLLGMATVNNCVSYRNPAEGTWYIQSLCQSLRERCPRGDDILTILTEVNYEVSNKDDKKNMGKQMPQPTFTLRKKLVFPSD
# PROTOCOL_DESCRIPTION: Caspase-8 inhibitory effect (fluorescent substrate AcDEVD-AFC)
# Format: biochemical
# CONDITION_DETAILS: pH 7.5; 25° C., 50 μM AcDEVD-AFC, 2.1 nM caspase-8; read-out: Caspase-8 Kobs/[I] (converted)
Criterion: kinact/KI meeting or surpassing 3000 M⁻¹ s⁻¹. Met: MET. Not met: NOT MET.

Solved entries (count: 7):
>>> label_value("CC(C)[C@@]1(C(=O)NC(CC(=O)O)C(=O)CF)CC(c2cccc(C(C)(C)C)c2)=NO1 (some centres unmarked)")
"MET"
>>> label_value("CCC1(C(=O)NC(CC(=O)O)C(=O)CF)CC(c2cc(CC(C)C)ccn2)=NO1 (centres unmarked)")
"NOT MET"
>>> label_value("CCC1(C(=O)NC(CC(=O)O)C(=O)CF)CC(c2cc(C3CC3)ccn2)=NO1 (centres unmarked)")
"MET"
>>> label_value("CC(C)[C@@]1(C(=O)N[C@@H](CC(=O)O)C(=O)COP(=O)(c2ccccc2)c2ccccc2)CC(c2nccc3ccccc23)=NO1")
"MET"
>>> label_value("CCC[C@@]1(C(=O)NC(CC(=O)O)C(=O)CF)CC(c2nccc3ccccc23)=NO1 (some centres unmarked)")
"MET"
>>> label_value("CCC1(C(=O)N[C@@H](CC(=O)O)C(=O)COc2c(F)c(F)cc(F)c2F)CC(COc2ccc(Cl)c3ccccc23)=NO1 (some centres unmarked)")
"NOT MET"
>>> label_value("CC[C@]1(C(=O)NC(CC(=O)O)C(=O)CF)CC(c2cc3ccccc3cn2)=NO1 (some centres unmarked)")
"MET"

Now look at this one.
Exam item: Please indicate if the recorded kinact/KI for CCC1(C(=O)NC(CC(=O)O)C(=O)CF)CC(c2ccnc3ccccc23)=NO1 (centres unmarked) meets or exceeds 3000 M⁻¹ s⁻¹.
Marked response: MET
